Target: Lck (Homo sapiens, UniProt P06239)
Construct: purchased Upstate 14-442
Sequence (P06239 whole entry): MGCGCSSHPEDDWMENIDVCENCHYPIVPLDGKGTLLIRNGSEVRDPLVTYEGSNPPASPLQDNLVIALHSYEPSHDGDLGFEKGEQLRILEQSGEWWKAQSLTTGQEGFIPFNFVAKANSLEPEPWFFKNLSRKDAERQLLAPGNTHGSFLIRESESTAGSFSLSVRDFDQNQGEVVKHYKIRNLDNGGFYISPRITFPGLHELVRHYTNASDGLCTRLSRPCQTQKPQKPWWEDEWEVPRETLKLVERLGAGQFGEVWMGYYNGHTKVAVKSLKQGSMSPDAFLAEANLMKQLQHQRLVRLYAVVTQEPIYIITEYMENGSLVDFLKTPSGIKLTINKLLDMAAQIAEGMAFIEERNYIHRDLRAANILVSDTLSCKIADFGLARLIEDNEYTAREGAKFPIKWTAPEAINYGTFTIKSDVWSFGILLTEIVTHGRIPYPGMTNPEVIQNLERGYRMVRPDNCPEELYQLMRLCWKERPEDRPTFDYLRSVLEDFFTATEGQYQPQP
Experiment: Lck kinase assay
Format: biochemical
Conditions: kinase panel, 10 μM ATP; read-out: Lck (Lymphocyte kinase) IC50
pIC50: −log10 of the molar value. Where a name gives a salt, the structure may show the parent alone.
endpoint-name: pIC50

Query: # pIC50 lookup, item COCCN1CCN(Cc2ccc(-c3n[nH]c4c3C(=O)c3c(NC(=O)NN5CCOCC5)cccc3-4)cc2)CC1 [Compound B16, dihydrochloride]
Reply: > 7.00

---

Tested on: A129 cp80
Assay: SRB cytotoxicity, cisplatin resistant cells
Type: cell-based, human
Conditions: 72 h, SRB
endpoint-name: IC50

Query: IC50; subject: N.N.[Cl][Pt][Cl] [Cisplatin, cis-diamminedichloroplatinum (II), reference compound]
Reply: 16.7 µM

---

Biological target: Abl T315I (Homo sapiens, UniProt P00519, T315I)
Construct: purchased Upstate 14-522
Assay: Abl T315I kinase assay
Assay type: biochemical
Conditions: read-out: Abl T315I IC50
endpoint-name: IC50 (nM)
One number for each entry, in nM.

Query: Reported IC50 for CC(C)N1CCN(C(=O)COc2ccc(-c3n[nH]c4c3C(=O)c3c(NC(=O)NN5CCOCC5)cccc3-4)cc2)CC1 : what is it?
Reply: 87

---

Target: CDKs
Construct: IC50 range over CDK1-7; other: 6 CDKs / CDK1-7; Cdk2/his-cyclin Eshort was expressed in Sf9 cells; Cdk2/cyclin A, cdk4/cyclin D1, and cdk6/cyclin D2 were expressed in Sf9 cells
Test: Kinase panel, CDKs (average/range)
Format: biochemical
Details: 6 CDKs / CDK1-7; read-out: average IC50 for CDKs
pIC50: −log10 of the molar value. Structures can show the parent of a compound that is named as a salt.
endpoint-name: pIC50

Query: Entry COCCN1CCN(Cc2ccc(-c3n[nH]c4c3C(=O)c3c(NC(=O)NN5CCOCC5)cccc3-4)cc2)CC1 [Compound B16, dihydrochloride] : reported pIC50 = ?
Reply: ~7.77

---

Molecular target: JNK3 (Homo sapiens)
Construct: purchased Upstate 14-501
Sequence (P53779 39-464): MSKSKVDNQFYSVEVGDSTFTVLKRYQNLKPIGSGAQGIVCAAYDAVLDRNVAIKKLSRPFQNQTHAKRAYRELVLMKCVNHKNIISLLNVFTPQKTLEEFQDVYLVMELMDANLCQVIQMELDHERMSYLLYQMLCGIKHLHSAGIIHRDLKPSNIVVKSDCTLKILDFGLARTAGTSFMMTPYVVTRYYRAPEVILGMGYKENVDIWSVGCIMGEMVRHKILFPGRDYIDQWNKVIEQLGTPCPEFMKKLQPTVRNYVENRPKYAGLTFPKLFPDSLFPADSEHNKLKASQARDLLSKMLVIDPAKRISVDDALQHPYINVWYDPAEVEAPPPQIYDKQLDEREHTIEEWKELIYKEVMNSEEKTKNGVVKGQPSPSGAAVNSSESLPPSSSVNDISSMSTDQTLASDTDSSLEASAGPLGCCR
Assay: JNK3 kinase assay
Assay type: biochemical
Conditions: read-out: MAPK10 Inhibition (IC50)
pIC50: −log10 of the molar value. Counter-ions that a name gives are not always drawn.
Exercise: state measured pIC50 for each of the compounds provided.

Report pIC50 for each item below.
1. COCCN1CCN(Cc2ccc(-c3n[nH]c4c3C(=O)c3c(NC(=O)NN5CCOCC5)cccc3-4)cc2)CC1 [Compound B16, dihydrochloride]
2. CC(C)N1CCN(C(=O)COc2ccc(-c3n[nH]c4c3C(=O)c3c(NC(=O)NN5CCOCC5)cccc3-4)cc2)CC1 [Compound A37]

Reply:
["> 7.30", "> 7.30"]

---

Give measured IC50 for each item. Keep answers brief.
Target: Yes (Homo sapiens, UniProt P07947)
Construct: purchased Upstate 14-478
Sequence (P07947 whole entry): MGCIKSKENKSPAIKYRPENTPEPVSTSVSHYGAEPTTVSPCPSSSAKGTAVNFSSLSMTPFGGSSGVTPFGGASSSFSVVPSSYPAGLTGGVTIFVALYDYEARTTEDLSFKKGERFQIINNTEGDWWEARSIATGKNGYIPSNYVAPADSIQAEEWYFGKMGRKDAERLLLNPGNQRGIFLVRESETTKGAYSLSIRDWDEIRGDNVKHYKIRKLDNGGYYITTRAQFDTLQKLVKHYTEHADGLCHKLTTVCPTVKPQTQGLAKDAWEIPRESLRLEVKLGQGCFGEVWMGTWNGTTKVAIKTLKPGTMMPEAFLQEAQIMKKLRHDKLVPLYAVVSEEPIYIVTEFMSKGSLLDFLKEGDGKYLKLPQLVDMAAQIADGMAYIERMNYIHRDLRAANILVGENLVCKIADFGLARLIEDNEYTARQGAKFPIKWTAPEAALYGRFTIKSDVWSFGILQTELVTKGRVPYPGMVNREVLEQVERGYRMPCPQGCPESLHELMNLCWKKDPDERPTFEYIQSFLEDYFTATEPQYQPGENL
Test: Yes kinase assay
Assay type: biochemical
Conditions: read-out: YES1 Inhibition (IC50)
Counter-ions that a name gives are not always drawn.

molecule	reported-measurement
COCCN1CCN(Cc2ccc(-c3n[nH]c4c3C(=O)c3c(NC(=O)NN5CCOCC5)cccc3-4)cc2)CC1 [Compound B16, dihydrochloride]	< 50 nM

Here's the next entry for you.
Query: Which measured IC50 value corresponds to CC(C)N1CCN(C(=O)COc2ccc(-c3n[nH]c4c3C(=O)c3c(NC(=O)NN5CCOCC5)cccc3-4)cc2)CC1 ?
Reply: < 50 nM
